Target: human PMAT (Homo sapiens, UniProt Q7RTT9)
Construct: expressed in transfected cells; host or cells: HEK293
Assay: Oxygen consumption rate (OCR) assay, HEK293 cells transfected with PMAT
Format: cell-based
Counter-ions that a name gives are not always drawn.

Molecule	Units	IC50
N=C(N)NC(=N)NCCc1c[nH]c2cccc(F)c12 [Ex 26, trifluoroacetic acid salt]	µM	2
Cc1[nH]c2ccccc2c1CCNC(=N)NC(=N)N	µM	3
N=C(N)NC(=N)NCCc1c[nH]c2c(F)cccc12	µM	4
N=C(N)NC(=N)NCCc1c[nH]c2cc(F)ccc12 [Ex 11, Trifluoroacetic Acid Salt]	µM	3
N=C(N)NC(=N)NCCc1c[nH]c2cccc(Cl)c12 [Ex 34, trifluoroacetic acid salt]	µM	2
Cl.N=C(N)NC(=N)NCCc1c[nH]c2ccc(F)cc12 [Ex 2, hydrochloride]	µM	5
N=C(N)NC(=N)NCCc1c[nH]c2c(F)c(F)c(F)c(F)c12 [Ex 42, trifluoroacetic acid salt]	µM	5
N=C(N)NC(=N)NCCc1c[nH]c2c(F)c(F)c(F)cc12 [Ex 41, trifluoroacetic acid salt]	µM	6

---

Target: human PMAT (Homo sapiens)
Construct: expressed in transfected cells; host or cells: HEK293
Assay: Oxygen consumption rate (OCR) assay, HEK293 cells transfected with PMAT
Assay type: cell-based
Conditions: HEK293 cells with human PMAT; 10 μM
Structures can show the parent of a compound that is named as a salt.

Compound	Units	inhibition at 10 µM
N=C(N)NC(=N)NCCCc1c[nH]c2ccccc12 [Ex 7, hydrochloride]	%	7
N=C(N)NC(=N)NCCc1c[nH]c2ccc(OC(F)(F)F)cc12 [Ex 57, trifluoroacetic acid salt]	%	6
Cn1cc(CCNC(=N)NC(=N)N)c2cc(F)ccc21	%	41
Cc1cccc2c(CCNC(=N)NC(=N)N)c[nH]c12 [Ex 59, trifluoroacetic acid salt]	%	47
Cc1[nH]c2cc(F)ccc2c1CCNC(=N)NC(=N)N [Ex 31, trifluoroacetic acid salt]	%	35
N=C(N)NC(=N)NCCc1c[nH]c2ccc(Cl)cc12 [Ex 9, trifluoroacetic acid salt]	%	53
N=C(N)NC(=N)NCCc1c[nH]c2ccncc12 [Ex 22, hydrochloride]	%	-7
N=C(N)NC(=N)NCCc1c[nH]c2cc(Cl)c(F)cc12 [Ex 48, trifluoroacetic acid salt]	%	61

---

Reported pIC50 values for the following compounds.
Target: UniProtKB Q96FL8
Sequence (Q96FL8 1-570): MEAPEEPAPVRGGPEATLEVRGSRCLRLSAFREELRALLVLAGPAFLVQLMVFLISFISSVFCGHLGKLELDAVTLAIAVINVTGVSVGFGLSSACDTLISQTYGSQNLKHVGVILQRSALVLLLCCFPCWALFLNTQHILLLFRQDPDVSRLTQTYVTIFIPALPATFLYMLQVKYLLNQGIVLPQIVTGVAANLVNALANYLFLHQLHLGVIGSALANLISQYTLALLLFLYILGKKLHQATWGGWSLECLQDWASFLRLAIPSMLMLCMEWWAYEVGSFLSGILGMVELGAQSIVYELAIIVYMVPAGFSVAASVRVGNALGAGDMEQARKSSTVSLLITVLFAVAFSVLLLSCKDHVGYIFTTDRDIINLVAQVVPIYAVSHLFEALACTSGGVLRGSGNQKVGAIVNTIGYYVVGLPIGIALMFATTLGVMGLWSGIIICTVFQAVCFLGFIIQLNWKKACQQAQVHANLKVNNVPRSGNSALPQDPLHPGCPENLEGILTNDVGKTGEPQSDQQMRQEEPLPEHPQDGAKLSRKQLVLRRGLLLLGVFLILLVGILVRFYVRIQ
pIC50: −log10 of the molar value. Structures can show the parent of a compound that is named as a salt.
Quantity: pIC50

Compound	Quantity	Reading Qualifier	Observed
N=C(N)NC(=N)NCCc1c[nH]c2ccc(Cl)c(F)c12 [Ex 49, trifluoroacetic acid salt]	pIC50	=	4.19
CC(C)(CNC(=N)NC(=N)N)c1c[nH]c2cc(F)ccc12 [Ex 63, trifluoroacetic acid salt]	pIC50	=	2.42
Cl.N=C(N)NC(=N)NCCc1c[nH]c2ccc(F)cc12 [Ex 2, hydrochloride]	pIC50	<	3.00
Cc1[nH]c2cc(F)ccc2c1CCNC(=N)NC(=N)N [Ex 31, trifluoroacetic acid salt]	pIC50	=	1.87

---

Target: human MATE1 (Homo sapiens, UniProt Q96FL8)
Experiment: Oxygen consumption rate (OCR) assay, HEK293 cells transfected with MATE1
Details: HEK293, read-out: Oxygen Consumption Rate (OCR), MATE 1, % Inhibition at 1000 μM test concentration
Counter-ions that a name gives are not always drawn.
Please use label 1 whenever inhibition at 1000 µM is not below 30%, and label 0 whenever it is.

Compound	Category Label
N=C(N)NC(=N)NCCc1c[nH]c2ccc(OCCO)cc12 [Ex 15, trifluoroacetic acid salt]	label 0
N=C(N)NC(=N)NCCCc1c[nH]c2ccccc12 [Ex 7, hydrochloride]	label 1
CC(Cc1cn(C)c2ccc(F)cc12)NC(=N)NC(=N)N (stereo not shown)	label 0
N=C(N)NC(=N)NCCc1c[nH]c2ccc(C(F)(F)F)cc12 [Ex 25, trifluoroacetic acid salt]	label 1
COc1cccc2[nH]cc(CCNC(=N)NC(=N)N)c12 [Ex 14, trifluoroacetic acid salt]	label 1
CC(Cc1c[nH]c2ccc(F)cc12)NC(=N)NC(=N)N (stereo not shown)	label 1
COc1ccc2[nH]c(C)c(CCNC(=N)NC(=N)N)c2c1 [Ex 19, trifluoroacetic acid salt]	label 0
N=C(N)NC(=N)NCCc1c[nH]c2ccc([N+](=O)[O-])cc12 [Ex 18, trifluoroacetic acid salt]	label 0
Cc1c(CCNC(=N)NC(=N)N)c2ccccc2n1C	label 0
CCOc1ccc2[nH]cc(CCNC(=N)NC(=N)N)c2c1 [Ex 12, trifluoroacetic acid salt]	label 0
CC(C)(CNC(=N)NC(=N)N)c1c[nH]c2ccccc12	label 1
N=C(N)NC(=N)NCCc1cn(CCO)c2ccccc12 [Ex 13, trifluoroacetic acid salt]	label 0

---

Target sequence: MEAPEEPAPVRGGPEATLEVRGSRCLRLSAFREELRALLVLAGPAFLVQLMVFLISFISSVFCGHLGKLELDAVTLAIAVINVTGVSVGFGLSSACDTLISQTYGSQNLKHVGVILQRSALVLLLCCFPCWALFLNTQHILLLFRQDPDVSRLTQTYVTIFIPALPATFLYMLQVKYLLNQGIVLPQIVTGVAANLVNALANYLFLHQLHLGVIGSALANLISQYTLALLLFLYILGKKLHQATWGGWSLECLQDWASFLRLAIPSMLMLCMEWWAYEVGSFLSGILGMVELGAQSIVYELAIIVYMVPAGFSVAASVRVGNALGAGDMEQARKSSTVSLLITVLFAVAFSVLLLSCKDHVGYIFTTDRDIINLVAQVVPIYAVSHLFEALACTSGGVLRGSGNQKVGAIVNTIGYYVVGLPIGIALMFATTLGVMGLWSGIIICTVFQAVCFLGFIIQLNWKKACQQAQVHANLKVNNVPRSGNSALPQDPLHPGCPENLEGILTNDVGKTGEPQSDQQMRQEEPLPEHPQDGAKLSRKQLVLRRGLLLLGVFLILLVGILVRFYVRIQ
Structures can show the parent of a compound that is named as a salt.

Molecule	Units	Reading Qualifier	IC50
N=C(N)NC(=N)NCCc1c[nH]c2nccc(Cl)c12 [Ex 46, trifluoroacetic acid salt]	µM	=	335
N=C(N)NC(=N)NCCc1c[nH]c2ccc(F)c(Cl)c12 [Ex 47, trifluoroacetic acid salt]	µM	=	22
N=C(N)NC(=N)NCCc1c[nH]c2cc(F)c(Cl)cc12 [Ex 58, trifluoroacetic acid salt]	µM	=	35
N=C(N)NC(=N)NCCc1c[nH]c2nc(F)ccc12 [Ex 45, trifluoroacetic acid salt]	µM	>	3000

---

Molecular target: human PMAT (Homo sapiens, UniProt Q7RTT9)
Construct: expressed in transfected cells; host or cells: HEK293
Sequence (Q7RTT9 1-530): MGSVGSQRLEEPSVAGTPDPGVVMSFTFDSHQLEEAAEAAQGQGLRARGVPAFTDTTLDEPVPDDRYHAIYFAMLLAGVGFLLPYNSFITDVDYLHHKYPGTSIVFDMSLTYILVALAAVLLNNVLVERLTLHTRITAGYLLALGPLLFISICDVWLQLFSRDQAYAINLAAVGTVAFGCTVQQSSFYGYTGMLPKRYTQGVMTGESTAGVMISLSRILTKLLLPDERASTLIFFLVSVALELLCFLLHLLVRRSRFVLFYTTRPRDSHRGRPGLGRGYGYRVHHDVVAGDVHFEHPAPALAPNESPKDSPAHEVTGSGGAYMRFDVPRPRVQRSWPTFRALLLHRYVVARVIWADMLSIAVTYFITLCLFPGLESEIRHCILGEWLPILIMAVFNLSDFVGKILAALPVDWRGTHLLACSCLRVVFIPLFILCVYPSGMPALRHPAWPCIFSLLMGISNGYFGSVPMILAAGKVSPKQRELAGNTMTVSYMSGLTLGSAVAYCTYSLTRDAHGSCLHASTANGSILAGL
Experiment: Oxygen consumption rate (OCR) assay, HEK293 cells transfected with PMAT
Type: cell-based
Conditions: HEK293 cells with human PMAT; 10 μM
Where a name gives a salt, the structure may show the parent alone.
Reported inhibition at 10 µM values for the following compounds.

Compound	System Name	Units	inhibition at 10 µM
Cc1ccc2c(CCNC(=N)NC(=N)N)c[nH]c2c1 [Ex 56, trifluoroacetate salt]	human PMAT (Homo sapiens, UniProt Q7RTT9)	%	43
CC(C)(CNC(=N)NC(=N)N)c1c[nH]c2ccccc12 [Ex 8]	human PMAT (Homo sapiens, UniProt Q7RTT9)	%	20
CN(C)C(=N)NC(=N)NCCc1c[nH]c2cc(F)ccc12 [Ex 23, hydrochloride]	human PMAT (Homo sapiens, UniProt Q7RTT9)	%	4
Cc1ccc2[nH]cc(CCNC(=N)NC(=N)N)c2c1 [Ex 10, trifluoroacetic acid salt]	human PMAT (Homo sapiens, UniProt Q7RTT9)	%	43
CC(Cc1c[nH]c2ccc(F)cc12)NC(=N)NC(=N)N (stereo not drawn) [Ex 5]	human PMAT (Homo sapiens, UniProt Q7RTT9)	%	12
CN(C)C(=N)NC(=N)NCCc1c[nH]c2ccc(C(F)(F)F)cc12 [Ex 32, hydrochloride]	human PMAT (Homo sapiens, UniProt Q7RTT9)	%	10
N=C(N)NC(=N)NCCc1c[nH]c2cc(Cl)ccc12 [Ex 35, trifluoroacetic acid salt]	human PMAT (Homo sapiens, UniProt Q7RTT9)	%	68
Cc1c(CCNC(=N)NC(=N)N)c2ccccc2n1C [Ex 16]	human PMAT (Homo sapiens, UniProt Q7RTT9)	%	36
N=C(N)NC(=N)NCCc1c[nH]c2c(Cl)cccc12 [Ex 36, trifluoroacetic acid salt]	human PMAT (Homo sapiens, UniProt Q7RTT9)	%	55

Origin of the recorded values: patent US12371404B2
